Molecular target: T1, Somatostatin receptor subtype 2 (SST-2) on rat pancreatic carcinoma AR4-2J cells (rat, UniProt P30680 1-369)
T1 construct: whole, on cells; Whole-cell suspension; the cells express predominantly, not only, SST-2; also called AR2-2J cells
T1 sequence (P30680 whole entry): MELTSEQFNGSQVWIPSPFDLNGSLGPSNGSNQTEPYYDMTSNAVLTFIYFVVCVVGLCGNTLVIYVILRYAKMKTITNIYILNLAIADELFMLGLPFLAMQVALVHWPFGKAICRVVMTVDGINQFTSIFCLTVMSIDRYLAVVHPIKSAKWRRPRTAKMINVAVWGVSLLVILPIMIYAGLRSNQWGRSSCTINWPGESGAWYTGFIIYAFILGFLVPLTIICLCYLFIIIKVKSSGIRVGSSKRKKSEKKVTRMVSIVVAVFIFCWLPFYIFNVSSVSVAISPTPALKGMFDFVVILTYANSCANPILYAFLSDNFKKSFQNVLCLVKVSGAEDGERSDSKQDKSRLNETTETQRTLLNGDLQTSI
Assay: competition with [125I]-[Tyr1]-somatostatin on AR4-2J cell suspension
Protocol: The cells were grown in tissue culture dishes (Falcon) which were incubated at 37° C. in an atmosphere of 5% CO₂ and 95% humidified air in DMEM medium with 4.5 g/l glucose supplemented with 1% L-glutamine, 20% foetal calf serum, 1% penicillin/streptomycin and amphotericin B (1 μg/mL). […] All binding experiments for AR4-2J cells were done at 37° C. in 10 mM MgCl₂, 0.25% BSA, 50 mM HEPES pH7.5, 1% protease inhibitor cocktail (Sigma). […] The filters activity was measured in a Cobra gamma counter. […]
metric: Kd (nM)
Answers are plain numbers, in nM.

// field: Kd; key: TGRRRGGFCYWKVCT ([TcO]3+ core chelated by the N-terminal HTGRRR tag; free N-terminus; the RC-121 part carries D-Phe, D-Trp, a C-terminal amide and the preserved disulfide bridge) [TcO[HTGRRRGG-RC-121]] ; value = 0.06
